Sourced from patent US20090291081A1

assayed target: T1, human IL-1β (human, UniProt P01584 117-269)
T1 construct: also called hIL-1β; rhIL-1 beta
protocol description: yeast surface Fab display, flow cytometry titration
property name: EC50 (nM)
Quick note: give the figure in nM, leave out the unit.

Field: example entries. Status: answers known.
binder | uom | EC50
ABT2-108-606/ABT1-122 Fab on yeast surface (Fab, V domains shown) VH: EVQLLESGGGLVQPGGSLRLSCAASGFTFAEYTMMWVRQAPGKGLEWVSRIGQDGKNTYYRSSVKGRFTISRDNSKNTLYLQMNSLRAEDTAVYYCAKYTGRVGVHHLFDYWGQGTLVTVSS VL: DIQMTQSPSSLSASVGDRVTITCRASQPIWTELNWYQQKPGKAPKLLIYGSSSLQSGVPSRFSGSGSGTDFTLTISSLQPEDFATYYCQQFAYFPATFGQGTKVEIKR | nM | 0.343
ABT2-108-605/ABT1-122 Fab on yeast surface (Fab, V domains shown) VH: EVQLLESGGGLVQPGGSLRLSCAASGFTFAEYTMMWVRQAPGKGLEWVSRIGQDGKNTYYREDVKGRFTISRDNSKNTLYLQMNSLRAEDTAVYYCAKYTGRVGVHHLFDYWGQGTLVTVSS VL: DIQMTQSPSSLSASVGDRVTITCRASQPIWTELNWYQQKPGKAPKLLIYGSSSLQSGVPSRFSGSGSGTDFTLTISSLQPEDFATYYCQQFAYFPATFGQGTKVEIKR | nM | 0.21

q: Which EC50 value is on record for ABT2-108/ABT1-122 Fab on yeast surface (Fab, V domains shown) VH: EVQLLESGGGLVQPGGSLRLSCAASGFTFAEYTMMWVRQAPGKGLEWVSRIGQDGKNTYYADSVKGRFTISRDNSKNTLYLQMNSLRAEDTAVYYCAKYTGRVGVHHLFDYWGQGTLVTVSS VL: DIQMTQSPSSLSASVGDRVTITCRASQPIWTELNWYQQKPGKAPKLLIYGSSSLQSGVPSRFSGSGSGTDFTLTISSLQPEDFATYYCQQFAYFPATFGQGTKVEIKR ?
a: 5.78
